# Test system: Vero E6
# method_summary: cell viability relative to DMSO; higher = less toxic
# details: 72 h; 100 nM
Measured cell viability by item
Return type: number; implicit unit %.

>  <compound>
CCC(CC)n1ccc2c(C(=O)NCc3c(C)cc(C)[nH]c3=O)cc(C#N)cc21

>  <observed>
107

$$$$

Can you share its cell viability? I mean this compound: Nc1ncc2c(n1)CC(c1ccco1)CC2=O (stereo not given)
100

// returns reported cell viability for input Cc1cccc(C)c1NC(=O)CC12CCCN1CCC2 [pilsicainide]
99.9

Reported cell viability, compound `CCCCCCCCCCC[C@@H](C[C@@H]1OC(=O)[C@H]1CCCCCC)OC(=O)[C@H](CC(C)C)NC=O` : ____
89.9

Which cell viability value is on record for `CCc1cncnc1N1CCN(Cc2nc3cc(C(F)(F)F)ccc3[nH]2)CC1` ?
101

###

Listing: cell viability of selected molecules
# Test system: HepG2
# method_summary: cell viability relative to DMSO; higher = less toxic
# details: 72 h; 1000 nM
Hi! Could you send only the number? It should be in %, unit omitted.

Sample records with cell viability:
>  <molecule>
C[C@H](Nc1cc2c(-c3ccc4c(c3)OCO4)noc2cn1)c1ccccc1

>  <observed>
91.6

$$$$
>  <molecule>
CCCN1CCCC(c2cccc(O)c2)C1 (stereo in doubt)

>  <observed>
112

$$$$

Sample N[C@@H](C(=O)O)c1ccc(C(=O)O)c(C(=O)O)c1 (racemic) [3,4-DCPG-(+/-)] — what was its cell viability?
102

What value of cell viability has been reported for the following molecule? `Nc1nc2ccc(OC(F)(F)F)cc2s1`
94.7

Requested read-out: cell viability. Entry: `COc1cc2c(c(OC)c1OC)-c1c(cc3c(c1OC)OCO3)C[C@H](C)[C@@](C)(O)C2`
98.4

###

Listed next: entries and their corresponding cell viability.
# System: Calu-3
# method_summary: cell viability relative to DMSO; higher = less toxic
# details: 72 h; 1000 nM
Just the number please, in %, no unit attached.

>  <molecule>
C[C@H]1[C@H](OC(=O)CCC(=O)O)O[C@@H]2O[C@@]3(C)CC[C@H]4[C@H](C)CC[C@@H]1[C@@]24OO3 [artesunate]

>  <system_under_test>
Calu-3

>  <cell viability [%]>
107

$$$$
>  <molecule>
OC[C@@H](O)[C@H]1O[C@@H]2O[C@H](C(Cl)(Cl)Cl)O[C@@H]2[C@H]1O

>  <system_under_test>
Calu-3

>  <cell viability [%]>
104

$$$$
>  <molecule>
NCCc1c[nH]cn1

>  <system_under_test>
Calu-3

>  <cell viability [%]>
95.7

$$$$
>  <molecule>
Nc1nc2ccc(OC(F)(F)F)cc2s1

>  <system_under_test>
Calu-3

>  <cell viability [%]>
97.5

$$$$
>  <molecule>
CCC(CC)n1ccc2c(C(=O)NCc3c(C)cc(C)[nH]c3=O)cc(C#N)cc21

>  <system_under_test>
Calu-3

>  <cell viability [%]>
109

$$$$
>  <molecule>
CCCCCCCCC(=O)N[C@H](CN1CCCC1)[C@H](O)c1ccc2c(c1)OCCO2

>  <system_under_test>
Calu-3

>  <cell viability [%]>
92

$$$$

Give the measured cell viability of CCC(C)n1ncn(-c2ccc(N3CCN(c4ccc(OCC5COC(Cn6cncn6)(c6ccc(Cl)cc6Cl)O5)cc4)CC3)cc2)c1=O (stereo unspecified) .
104
